# assay-name: NCI Yeast Anticancer Drug Screen. Data for the cln2 rad14 strain (AID 165);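 note: 0% = growth equal to vehicle treated cultures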
# assay-conditions: S. cerevisiae cln2 rad14 strain, at 50.0 µM (retest, dose inferred, filed as 5.0)
This is part of a sample that, as a whole, favours compounds with a hit. Of some 79,000 tested, about 15% had one in any assay. Calls of active or inactive are those of the source. Cut-off read from the data, not from the text of the source: active = growth inhibition above about 70%; inactive = the rest.
Your answer must be one of the following: true = active, false = inactive

Hi team, can someone confirm the assay call for COc1ccc(C=Nc2ccccc2O)cc1 ?
false

Hi team, can someone confirm the assay call for CC(NC(=O)OCc1ccccc1)C(=O)NC(C(=O)O)C(C)C (stereo not drawn) ?
false

Hi team, can someone confirm the assay call for C=C(CN1CCCC1)C(=O)c1ccc(OC)cc1 ?
true

Hi team, can someone confirm the assay call for O=C(O)C(=O)Cc1ccccc1[N+](=O)[O-] ?
false

Hi team, can someone confirm the assay call for Oc1cc(CNCc2ccccc2)c(O)c(CNCc2ccccc2)c1 ?
false

Hi team, can someone confirm the assay call for COC(=O)C1C(=O)CC(c2ccccc2)C1c1ccccc1 (stereo not drawn) ?
false

Hi team, can someone confirm the assay call for CCCCCCSc1nc2ccc(N=Cc3ccccc3O)cc2s1 ?
false

Hi team, can someone confirm the assay call for O=C1OC(CC(=O)c2ccccc2Cl)C(Cl)=C1Cl (stereo not drawn) ?
false

---

# assay-name: NCI Yeast Anticancer Drug Screen. Data for the sgs1 mgt1 strain (AID 161);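 note: 0% = growth of cultures given vehicle only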
# assay-conditions: S. cerevisiae sgs1 mgt1 strain, at 50.0 µM (retest, dose inferred, filed as 5.0), hits give high values
# Procedure: Growth inhibition of yeast strains with defined genetic alterations is measured as a screen for potential anti-cancer activity. Selected strains with alterations in DNA damage repair or cell cycle control were exposed to compounds and growth inhibition was measured relative to vehicle treated controls. The strain used in this assay is sgs1 mgt1
About 79,000 compounds went through this panel and 15% of them were active in at least one assay; those are over-represented in the sample as a whole.
measured-property: growth inhibition (%)
A number alone suffices; assume %.

A selection of reference data follows.
| molecule | growth inhibition [%] |
| --- | --- |
| CCN(CC)c1ccc2nc3ccc(N(CC)CC)cc3[n+](-c3ccccc3)c2c1 | 99 |
| Nc1nc(Cc2ccccc2)nc(Cc2ccccc2)c1-c1ccccc1 | 98 |
| CC/C(=C\c1cccc(OC)c1)c1ccncc1 | 91 |
| CN(NC(=O)/C(=C/c1ccc2c(c1)OCO2)NC(=O)c1ccccc1)c1ccnc2cc(Cl)ccc12 | -15 |

# next molecule below
Entry O=C(Oc1ccccc1)C1CCCCC1C(=O)Oc1ccccc1 (stereo not given) , growth inhibition reported as 5

---

# assay-name: NCI Yeast Anticancer Drug Screen. Data for the rad50 strain (AID 155);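 note: 0% = growth of vehicle-only cultures of the same strain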
# assay-conditions: S. cerevisiae rad50 strain growth inhibition; at 50.0 µM (retest, dose inferred, filed as 5.0)
Compounds without any hit were thinned out: in the full panel of roughly 79,000, 15% have a hit. Active and inactive are the calls of the source. No stated cut-off is given here; in the data, active means growth inhibition above about 70%; inactive means the rest.
Your answer must be one of the following: active, inactive

| molecule | class-assignment |
| --- | --- |
| CCOc1cc2c(OCc3ccccc3)cc3c4cc(OC)c(OC)cc4c[n+](C)c3c2cc1OC | active |

Hi team, can someone confirm the assay call for O=c1cccccc1[O-].O=c1cccccc1[O-].O=c1cccccc1[O-].[Nd+3] ?
inactive

Hi team, can someone confirm the assay call for COc1ccc([N+](=O)[O-])cc1NC(=O)Nc1ccc(C(=O)OCC(C)C)cc1 ?
inactive

Hi team, can someone confirm the assay call for O=C1OC2(c3ccc(O)cc3Oc3cc(O)ccc32)c2c1c(-c1ccccc1)c(-c1ccccc1)c(-c1ccccc1)c2-c1ccccc1 ?
active

Hi team, can someone confirm the assay call for COc1cc(/C=C2\S/C(=N/Nc3nc(-c4ccc(Br)cc4)cs3)NC2=O)cc(OC)c1OC ?
inactive

Hi team, can someone confirm the assay call for O=C1C=CC(=Nc2ccc(O)c3ncccc23)c2cccnc21 ?
active

Hi team, can someone confirm the assay call for Oc1ccc(-c2nnc(-c3ccccc3)nn2)cc1 ?
inactive

Hi team, can someone confirm the assay call for NCCSC1(O)C(=O)c2ccccc2C1=O ?
active

Reference source: PubChem BioAssay (NCI)
